I'd appreciate it if you could supply half-life values for the items below.
# PROCEDURE TEXT: Hydrolytic stability in buffered saline (HPLC assay)
# Type: physicochemical
# RUN PARAMETERS: aqueous solution, PBS at pH 7.4

The compound listed as Cc1ncn2c(=O)n(C)nnc12 [Compound 14] has a reported half-life of > 20 h

Measured half-life, Cn1nnc2c(-c3ccccc3)ncn2c1=O [Compound 23] : > 20 h
